Target: human CB2 receptors (Homo sapiens)
Construct: expressed in transfected cells; host or cells: HEK293
Sequence (P34972 whole entry): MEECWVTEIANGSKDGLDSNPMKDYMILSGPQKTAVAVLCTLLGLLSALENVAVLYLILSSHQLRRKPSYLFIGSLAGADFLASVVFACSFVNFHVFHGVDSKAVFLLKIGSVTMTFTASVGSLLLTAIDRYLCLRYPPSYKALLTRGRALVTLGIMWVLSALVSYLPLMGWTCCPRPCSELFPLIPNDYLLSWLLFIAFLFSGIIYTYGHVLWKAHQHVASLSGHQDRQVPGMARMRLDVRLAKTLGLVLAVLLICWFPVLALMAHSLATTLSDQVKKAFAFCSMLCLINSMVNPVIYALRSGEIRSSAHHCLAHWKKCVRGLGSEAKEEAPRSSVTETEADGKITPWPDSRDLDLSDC
Assay: human CB2 radioligand binding assay ([3H]CP-55,940 competition)
Label key: True means Ki under 9 nM; False means Ki of 9 nM or more.

Record excerpt, results attached:
COc1ccc(Cl)cc1C(=O)/N=c1\sn(C(C)(C)C)cc1CC(C)C : False
CCCCc1cn(C(C)(C)C)s/c1=N\C(=O)[C@@H]1CC[C@](C)(C(=O)OC)C1(C)C : True
CCCCc1cn(C(C)(C)C)s/c1=N\C(=O)C12CC3CC(CC(C3)C1)C2 : True

Dear reviewer, please state whether CCCCc1cn(C(C)(C)C)s/c1=N\C(=O)c1cc(C#N)ccc1OCC(F)(F)F has Ki strictly beneath 9 nM. False

Dear reviewer, please state whether C#CCNC(=O)[C@H]1CC[C@@](C)(C(=O)/N=c2\sn(C(C)(C)C)cc2CCCC)C1(C)C has Ki strictly beneath 9 nM. False

Dear reviewer, please state whether C#Cc1ccc(OC)c(C(=O)/N=c2\sn(C(C)(C)C)cc2CCCC)c1 has Ki strictly beneath 9 nM. False

###

Molecular target: rat CB2 (Rattus norvegicus, UniProt Q9QZN9)
Assay: rat CB2 cyclase functional assay (HitHunter cAMP, HEK cells)
Conditions: forskolin 18 μM
Label key: criterion met means EC50 under 600 pM; criterion not met means EC50 of 600 pM or more.

Record excerpt, results attached:
CCCCc1cn(C(C)(C)C)s/c1=N\C(=O)c1cc(C(F)(F)F)ccc1OCC1CCCCN1C (stereo not shown) : criterion not met
COc1ccc(Cl)cc1C(=O)/N=c1\sn(C(C)(C)C)cc1C(O)C1CCC1 (stereo not shown) : criterion met

Dear reviewer, please state whether CCCCc1cn(C(C)(C)C)s/c1=N\C(=O)c1cc(C=O)ccc1OC has EC50 strictly beneath 600 pM. criterion met

Dear reviewer, please state whether COc1ccc(Cl)cc1C(=NC#N)/N=c1\sn(C(C)(C)C)cc1CCCC#N has EC50 strictly beneath 600 pM. criterion met

Dear reviewer, please state whether CCCCc1cn(C(C)(C)C)s/c1=N\C(=O)[C@@H]1CC[C@](C)(C(=O)OC)C1(C)C has EC50 strictly beneath 600 pM. criterion met

Dear reviewer, please state whether CCCCc1cn(C(C)(C)C)s/c1=N\C(=O)c1cc(Cl)ccc1OCCF has EC50 strictly beneath 600 pM. criterion met

Dear reviewer, please state whether CCCCc1cn(C(C)(C)C)s/c1=N\C(=O)[C@H]1CC[C@@](C)(C(N)=O)C1(C)C has EC50 strictly beneath 600 pM. criterion met

Dear reviewer, please state whether COc1ccc(C(F)(F)F)cc1C(=O)/N=c1\sn(C(C)(C)C)cc1CCCC(C)=O has EC50 strictly beneath 600 pM. criterion met

Dear reviewer, please state whether COc1ccc(C(F)(F)F)cc1C(=O)/N=c1\sn(C(C)(C)C)cc1CCCC(C)(C)O has EC50 strictly beneath 600 pM. criterion met

Dear reviewer, please state whether CCCCc1cn(C(C)(C)C(F)(F)F)s/c1=N\C(=O)c1cc(Cl)ccc1OC has EC50 strictly beneath 600 pM. criterion met

Dear reviewer, please state whether CCCCCc1cn(C(C)(C)C)s/c1=N\C(=O)c1cc(Cl)ccc1OC has EC50 strictly beneath 600 pM. criterion met

###

Target: rat CB2 (Rattus norvegicus)
Sequence (Q9QZN9 1-360): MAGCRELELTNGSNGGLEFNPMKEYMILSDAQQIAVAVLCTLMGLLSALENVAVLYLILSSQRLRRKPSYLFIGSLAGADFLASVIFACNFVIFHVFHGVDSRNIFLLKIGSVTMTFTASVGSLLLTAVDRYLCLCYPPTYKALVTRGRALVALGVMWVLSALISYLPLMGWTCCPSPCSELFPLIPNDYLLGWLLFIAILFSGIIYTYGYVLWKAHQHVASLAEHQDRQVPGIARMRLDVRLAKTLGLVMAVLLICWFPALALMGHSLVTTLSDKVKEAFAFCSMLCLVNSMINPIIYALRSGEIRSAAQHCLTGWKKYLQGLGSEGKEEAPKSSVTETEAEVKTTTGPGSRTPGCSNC
Test: rat CB2 radioligand binding assay ([3H]CP-55,940 competition)
Set-up: expressed in transfected cells; host or cells: HEK293
Conditions: HEK293 membranes, 0.5 nM [3H]CP-55,940; read-out: rat CB2 (Ki)
ASSAY_ENDPOINT: Ki (nM)
Numbers only; they are read as nM.

In the examples that follow, each entry is paired with its recorded Ki.
CCCCc1cn(C(C)(C)C)s/c1=N\C(=O)[C@@]1(C)CC[C@@H](NC(=O)NC)C1(C)C : 107
CCCCc1cn(C(C)(C)C)s/c1=N\C(=O)[C@]1(C)CC[C@H](NC(=O)N2CC(O)C2)C1(C)C : 361
CCCCc1cn(C(C)(C)C)s/c1=N\C(=O)[C@]1(C)CC[C@H](C(=O)NN2CCCC2)C1(C)C : 325
CCCCc1cn(C(C)(C)C)s/c1=N\C(=O)c1cc(C(F)(F)F)ccc1OCc1cnccn1 : 111
CCCCc1cn(C(C)(C)C)s/c1=N\C(=O)[C@]1(C)CC[C@H](C(=O)NCc2ccccn2)C1(C)C : 142
CCCCc1cn(C(C)(C)C)s/c1=N\C(=O)[C@@]1(C)CC[C@@H](C(=O)NCCC)C1(C)C : 159

Shifting focus to the molecule that follows.
response.value for CC(C)Cc1cn(C(C)(C)C)s/c1=N\C(=O)c1cc(C(F)(F)F)ccc1OC[C@@H]1CCCN1C (field: Ki) = 156
